measurementProtocol: Safety index, ratio of IC50 for HEK293 cells to IC50 for human A549 cells
Type: toxicity
experimentalConditions: HEK293 cells versus A549 cells, read-out: Ratio IC50
outcomeMeasure: selectivity ratio
Numbers only.

selectivity ratio recorded for this molecule, "Cc1nc2c(c(C)c1O)/C(=C/c1cccnc1)C(=O)N2" , is 2.4

---

measurementProtocol: Cytotoxicity against HEK293 cells assessed as inhibition of cell growth incubated for 48 hrs by MTT assay
Format: toxicity, cell-based
experimentalConditions: human
Assignment: determine reported IC50 at 48 h for the given molecules.
Give bare numbers, in µM.

Cc1nc2c(c(C)c1O)/C(=C/c1cccnc1)C(=O)N2 :: 33
Cc1nc2c(c(C)c1O)/C(=C/C(c1ccccc1)c1ccccc1)C(=O)N2 :: 37.8
CCCCC/C=C1\C(=O)Nc2nc(C)c(O)c(C)c21 :: 6.1

I need IC50 at 48 h for every entry listed below, if you could help.
1. COc1ccc(OC)c(/C=C2\C(=O)Nc3nc(C)c(O)c(C)c32)c1
2. COc1ccc(Br)cc1/C=C1\C(=O)Nc2nc(C)c(O)c(C)c21

-- reply
11
19.5

---

experimentalTarget: Epidermal growth factor receptor (Homo sapiens, UniProt P00533)
Sequence (P00533 whole entry): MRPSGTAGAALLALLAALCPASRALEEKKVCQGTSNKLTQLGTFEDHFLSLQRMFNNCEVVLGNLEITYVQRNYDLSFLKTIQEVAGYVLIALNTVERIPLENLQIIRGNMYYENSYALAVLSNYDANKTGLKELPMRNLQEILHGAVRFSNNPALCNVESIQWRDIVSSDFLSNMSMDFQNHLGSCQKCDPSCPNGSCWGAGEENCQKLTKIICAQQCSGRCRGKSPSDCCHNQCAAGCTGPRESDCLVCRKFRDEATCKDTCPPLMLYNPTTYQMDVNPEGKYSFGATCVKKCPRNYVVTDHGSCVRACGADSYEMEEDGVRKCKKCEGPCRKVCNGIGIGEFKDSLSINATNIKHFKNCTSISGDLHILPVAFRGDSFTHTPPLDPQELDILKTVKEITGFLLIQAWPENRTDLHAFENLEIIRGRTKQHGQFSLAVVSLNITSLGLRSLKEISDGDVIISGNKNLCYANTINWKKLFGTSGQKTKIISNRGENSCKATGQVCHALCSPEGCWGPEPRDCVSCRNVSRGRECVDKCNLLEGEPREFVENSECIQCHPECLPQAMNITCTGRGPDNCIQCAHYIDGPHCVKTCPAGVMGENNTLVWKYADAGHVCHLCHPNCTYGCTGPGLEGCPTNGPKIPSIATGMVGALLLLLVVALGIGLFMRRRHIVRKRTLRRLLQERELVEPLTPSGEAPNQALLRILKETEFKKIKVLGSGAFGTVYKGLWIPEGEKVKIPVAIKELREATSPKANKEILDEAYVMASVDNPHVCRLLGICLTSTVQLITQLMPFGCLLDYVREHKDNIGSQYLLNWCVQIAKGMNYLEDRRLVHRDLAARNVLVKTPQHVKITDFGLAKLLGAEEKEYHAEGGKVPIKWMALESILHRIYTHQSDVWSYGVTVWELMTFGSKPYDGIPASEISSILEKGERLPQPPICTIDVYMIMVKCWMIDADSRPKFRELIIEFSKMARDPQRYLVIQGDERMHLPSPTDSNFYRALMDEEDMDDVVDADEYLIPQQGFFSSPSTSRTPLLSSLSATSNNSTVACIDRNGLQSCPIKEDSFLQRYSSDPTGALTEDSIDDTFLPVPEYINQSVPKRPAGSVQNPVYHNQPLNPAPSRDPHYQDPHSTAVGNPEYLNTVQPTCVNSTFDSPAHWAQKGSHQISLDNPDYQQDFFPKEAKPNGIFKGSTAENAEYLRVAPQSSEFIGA
outcomeMeasure: IC50 (µM)
Answers are plain numbers, in µM.

IC50 recorded for this compound, "Cc1nc2c(c(C)c1O)/C(=C/c1ccc3ccccc3n1)C(=O)N2" , is 18.8

---

measurementProtocol: Safety index, ratio of IC50 for HEK293 cells to IC50 for human MDA-MB-231 cells
Assay type: toxicity
experimentalConditions: HEK293 cells versus MDA-MB-231 cells, read-out: Ratio IC50
outcomeMeasure: selectivity ratio
One number for each entry.

selectivity ratio recorded for this compound, "Cc1nc2c(c(C)c1O)/C(=C/c1cccnc1)C(=O)N2" , is 3.4

---

System: MCF7
measurementProtocol: Cytotoxicity against human MCF7 cells assessed as inhibition of cell growth incubated for 48 hrs by MTT assay
Format: functional, cell-based
experimentalConditions: MCF7, 48 h
pIC50: −log10 of the molar value.
Quick rule: pIC50 of at least 5 means y, below that means n.

Cc1nc2c(c(C)c1O)/C(=C/c1ccoc1)C(=O)N2 :: n
COc1ccc(OC)c(/C=C2\C(=O)Nc3nc(C)c(O)c(C)c32)c1 :: n
Cc1nc2c(c(C)c1O)/C(=C/c1cccnc1)C(=O)N2 :: n
Cc1nc2c(c(C)c1O)/C(=C/C(c1ccccc1)c1ccccc1)C(=O)N2 :: y

Would you kindly look at the next entry?
-- ask Reported pIC50 reaches at least 5 for "Cc1nc2c(c(C)c1O)/C(=C/c1ccncc1)C(=O)N2" ?
-- reply n

---

measurementProtocol: Safety index, ratio of IC50 for CHO-K1 cells to IC50 for human U-937 cells
Type: toxicity
experimentalConditions: Chinese hamster (CHO-K1), CHO-K1 cells versus U-937 cells, read-out: Ratio IC50
outcomeMeasure: selectivity ratio
Numbers only.

selectivity ratio recorded for this compound, "Cc1nc2c(c(C)c1O)/C(=C/c1cccnc1)C(=O)N2" , is 5.4

---

Assignment: determine reported pIC50 for the given molecules.
Test system: MDA-MB-231
measurementProtocol: Cytotoxicity against human MDA-MB-231 cells assessed as inhibition of cell growth incubated for 48 hrs by MTT assay
Format: functional, cell-based
experimentalConditions: MDA-MB-231, 48 h
Numbers only, as −log10 of the molar value.

Examples with answers:
Cc1nc2c(c(C)c1O)/C(=C/c1ccc(N(C)C)cc1)C(=O)N2 :: 4.92
Cc1nc2c(c(C)c1O)/C(=C/C(c1ccccc1)c1ccccc1)C(=O)N2 :: 4.64
COc1ccc(OC)c(/C=C2\C(=O)Nc3nc(C)c(O)c(C)c32)c1 :: 4.64
CCCCC/C=C1\C(=O)Nc2nc(C)c(O)c(C)c21 :: 4.90

I need pIC50 for every entry listed below, if you could help.
1. COc1ccc(Br)cc1/C=C1\C(=O)Nc2nc(C)c(O)c(C)c21
2. Cc1nc2c(c(C)c1O)/C(=C/c1cccnc1)C(=O)N2

-- reply
1: 4.98; 2: 5.02

---

System: MCF7
measurementProtocol: Cytotoxicity against human MCF7 cells assessed as inhibition of cell growth at 30 uM incubated for 48 hrs by MTT assay relative to control
Format: functional
# binning rule on inhibition at 30 µM: group A: < 30%; group B: ≥ 30% and < 50%; group C: ≥ 50%

Cc1ccc(/C=C2\C(=O)Nc3nc(C)c(O)c(C)c32)cc1 :: group B
Cc1nc2c(c(C)c1O)/C(=C/c1ccncc1)C(=O)N2 :: group C
Cc1nc2c(c(C)c1O)/C(=C/C(c1ccccc1)c1ccccc1)C(=O)N2 :: group C

-- ask Assign a category based on measured inhibition at 30 µM for "Cc1nc2c(c(C)c1O)/C(=C/c1cccc3[nH]ccc13)C(=O)N2" and give only the class name.
-- reply group A

-- ask Assign a category based on measured inhibition at 30 µM for "Cc1nc2c(c(C)c1O)/C(=C/c1ccccn1)C(=O)N2" and give only the class name.
-- reply group A

-- ask Assign a category based on measured inhibition at 30 µM for "Cc1nc2c(c(C)c1O)/C(=C/c1ccc(N(C)C)cc1)C(=O)N2" and give only the class name.
-- reply group C

-- ask Assign a category based on measured inhibition at 30 µM for "Cc1nc2c(c(C)c1O)/C(=C/c1cnc[nH]1)C(=O)N2" and give only the class name.
-- reply group A

-- ask Assign a category based on measured inhibition at 30 µM for "Cc1ccc(/C=C2\C(=O)Nc3nc(C)c(O)c(C)c32)s1" and give only the class name.
-- reply group C

-- ask Assign a category based on measured inhibition at 30 µM for "Cc1nc2c(c(C)c1O)/C(=C/c1ccc(F)cc1)C(=O)N2" and give only the class name.
-- reply group B

---

System: MCF7
measurementProtocol: Cytotoxicity against human MCF7 cells assessed as inhibition of cell growth at 30 uM incubated for 48 hrs by MTT assay relative to control
Format: functional
outcomeMeasure: inhibition at 30 µM

Examples with answers:
Cc1nc2c(c(C)c1O)/C(=C/c1ccc3ccccc3c1)C(=O)N2 :: 30.5%
COc1cccc(/C=C2\C(=O)Nc3nc(C)c(O)c(C)c32)c1 :: 29.6%
Cc1nc2c(c(C)c1O)/C(=C/c1cccnc1)C(=O)N2 :: 78%
Cc1nc2c(c(C)c1O)/C(=C/c1ccc([N+](=O)[O-])cc1)C(=O)N2 :: 16.3%

inhibition at 30 µM recorded for this compound, "Cc1nc2c(c(C)c1O)/C(=C/c1ccc[nH]1)C(=O)N2" , is 27%

---

measurementProtocol: Cytotoxicity against HEK293 cells assessed as inhibition of cell growth incubated for 48 hrs by MTT assay
Assay type: toxicity, cell-based
experimentalConditions: human
Assignment: determine reported IC50 at 48 h for the given molecules.

Examples with answers:
Cc1nc2c(c(C)c1O)/C(=C/c1ccncc1)C(=O)N2 :: > 90 µM
Cc1nc2c(c(C)c1O)/C(=C/c1ccc(N(C)C)cc1)C(=O)N2 :: > 90 µM

Now let's try a different one.
IC50 at 48 h recorded for this molecule, "Cc1nc2c(c(C)c1O)/C(=C/c1ccoc1)C(=O)N2" , is > 90 µM

---

Test system: MCF7
measurementProtocol: Cytotoxicity against human MCF7 cells assessed as inhibition of cell growth incubated for 48 hrs by MTT assay
Assay type: functional, cell-based
experimentalConditions: MCF7, 48 h
outcomeMeasure: pIC50
One number for each entry, as −log10 of the molar value.

Cc1nc2c(c(C)c1O)/C(=C/c1ccc(N(C)C)cc1)C(=O)N2 :: 4.88

I need pIC50 for every entry listed below, if you could help.
1. CCCCC/C=C1\C(=O)Nc2nc(C)c(O)c(C)c21
2. COc1ccc(Br)cc1/C=C1\C(=O)Nc2nc(C)c(O)c(C)c21

-- reply
1: 4.86; 2: 4.96

---

Test system: MCF7
measurementProtocol: Cytotoxicity against human MCF7 cells assessed as inhibition of cell growth at 30 uM incubated for 48 hrs by MTT assay relative to control
Assay type: functional
Quick rule: inhibition at 30 µM of at least 30% means TRUE, below that means FALSE.

Cc1nc2c(c(C)c1O)/C(=C/c1ccco1)C(=O)N2 :: TRUE
Cc1nc2c(c(C)c1O)/C(=C/c1cccs1)C(=O)N2 :: TRUE
Cc1nc2c(c(C)c1O)/C(=C/c1c[nH]c3ccccc13)C(=O)N2 :: FALSE

-- ask Reported inhibition at 30 µM reaches at least 30% for "Cc1nc2c(c(C)c1O)/C(=C/c1ccc(Cl)cc1)C(=O)N2" ?
-- reply TRUE

---

System: MCF7
measurementProtocol: Cytotoxicity against human MCF7 cells assessed as inhibition of cell growth at 30 uM incubated for 48 hrs by MTT assay relative to control
Format: functional
Assignment: determine reported inhibition at 30 µM for the given compounds.
Give bare numbers, in %.

Cc1nc2c(c(C)c1O)/C(=C/c1ccccc1O)C(=O)N2 :: 29.2
CCC(/C=C1\C(=O)Nc2nc(C)c(O)c(C)c21)CC :: 30.5

inhibition at 30 µM recorded for this compound, "COc1ccccc1/C=C1\C(=O)Nc2nc(C)c(O)c(C)c21" , is 30.7
